B1: Ankyrin-3, residues 4094 to 4171; numbered along this chain, Q12955 (parent)
chain: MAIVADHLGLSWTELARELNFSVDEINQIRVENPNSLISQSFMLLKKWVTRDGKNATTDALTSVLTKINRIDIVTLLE

variants of: B1; assay: abundance fitness (aPCA) (normalised: wild type 0, dead -1); higher = more abundant; growth selection in yeast, the domain comes from the species named; conditions: Homo sapiens

>  <variant string>
V31P

>  <abundance fitness>
-0.929

$$$$
>  <variant string>
G9T

>  <abundance fitness>
-1

$$$$
>  <variant string>
L8Q

>  <abundance fitness>
-0.755

$$$$
>  <variant string>
E14G

>  <abundance fitness>
-0.426

$$$$
>  <variant string>
T58K

>  <abundance fitness>
0.016

$$$$
>  <variant string>
H7N

>  <abundance fitness>
-0.292

$$$$
>  <variant string>
I26S

>  <abundance fitness>
-0.805

$$$$
>  <variant string>
D59E

>  <abundance fitness>
-0.103

$$$$
>  <variant string>
K47D

>  <abundance fitness>
-0.177

$$$$
>  <variant string>
I38M

>  <abundance fitness>
0.009

$$$$
>  <variant string>
T58D

>  <abundance fitness>
0.086

$$$$
>  <variant string>
A16N

>  <abundance fitness>
-0.793

$$$$
>  <variant string>
L76H

>  <abundance fitness>
-0.064

$$$$
>  <variant string>
M43P

>  <abundance fitness>
-0.892

$$$$
>  <variant string>
E78G

>  <abundance fitness>
0.077

$$$$
>  <variant string>
V23Q

>  <abundance fitness>
0.16

$$$$
>  <variant string>
N20V

>  <abundance fitness>
-0.608

$$$$
>  <variant string>
G53L

>  <abundance fitness>
-0.832

$$$$
>  <variant string>
L77T

>  <abundance fitness>
-0.434

$$$$
>  <variant string>
Q40L

>  <abundance fitness>
-0.833

$$$$
>  <variant string>
T13W

>  <abundance fitness>
-0.707

$$$$
>  <variant string>
A5P

>  <abundance fitness>
-0.899

$$$$
